Source of measurements: patent US20250270227A1

tested on: human ovarian cancer cell line OVCAR3; assay: Test 1 of anti-proliferative activity against tumor cells (Cell-Titer Glo); type: cell-based; conditions: Homo sapiens, OVCAR-3, 120 h, read-out: OVCAR3 Anti-proliferative activity IC50 (nM)
Outcome Measure: IC50 (nM)

# Compound, Outcome Measure, Value Measured
records = [
    ("CC[C@@]1(O)C(=O)OCc2c1cc1n(c2=O)Cc2c-1nc1cc(F)c(Cl)c(F)c1c2CNC(=O)C(O)C1CC1 (stereo partly drawn)", "IC50", 3.9),
    ("CC[C@@]1(O)C(=O)OCc2c1cc1n(c2=O)Cc2c-1nc1cc(F)c(Cl)c(F)c1c2CNC(=O)CCO", "IC50", 1),
    ("CC[C@@]1(O)C(=O)OCc2c1cc1n(c2=O)Cc2c-1nc1cc3c(c(Cl)c1c2CNC(=O)C(O)C1CC1)OCO3 (stereo partly drawn)", "IC50", 0.4),
]
